B1: VH:VL chains; a variant is named by its letters at X, in order (parent)
chain 1: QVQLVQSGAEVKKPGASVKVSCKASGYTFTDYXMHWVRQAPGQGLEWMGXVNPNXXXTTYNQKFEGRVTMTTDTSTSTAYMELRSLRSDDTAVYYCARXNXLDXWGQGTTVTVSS
chain 2: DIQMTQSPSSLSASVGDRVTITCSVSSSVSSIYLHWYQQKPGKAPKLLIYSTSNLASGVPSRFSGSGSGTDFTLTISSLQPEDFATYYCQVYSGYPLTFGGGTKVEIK

# Variants of: B1
# assay-details: yeast display scFab, FACS + sequencing

{"variant-id": "FREKGDLA", "non-specific binding call": "no binding"}
{"variant-id": "YAGGDDAA", "non-specific binding call": "no binding"}
{"variant-id": "ATTKSDGA", "non-specific binding call": "no binding"}
{"variant-id": "FRGRGFSV", "non-specific binding call": "binds"}
{"variant-id": "FRAGGALS", "non-specific binding call": "binds"}
{"variant-id": "DEGGTSGV", "non-specific binding call": "no binding"}
{"variant-id": "YRRGGALD", "non-specific binding call": "binds"}
{"variant-id": "YRGRGFGV", "non-specific binding call": "binds"}
{"variant-id": "YTKGTSVA chain 1 E65K", "non-specific binding call": "binds"}
{"variant-id": "VKGRASAF", "non-specific binding call": "no binding"}
{"variant-id": "VTTKSDSA", "non-specific binding call": "no binding"}
{"variant-id": "SKERGDWV", "non-specific binding call": "no binding"}
{"variant-id": "VGGTSDGA", "non-specific binding call": "no binding"}
{"variant-id": "YRGAGAGV", "non-specific binding call": "binds"}
{"variant-id": "YTGTSAVS", "non-specific binding call": "no binding"}
{"variant-id": "ARAGGSVV", "non-specific binding call": "no binding"}
{"variant-id": "VKGRGSWA", "non-specific binding call": "binds"}
{"variant-id": "VTEEGSSV", "non-specific binding call": "no binding"}
{"variant-id": "FRRTDFVA chain 1 C22Y", "non-specific binding call": "binds"}
{"variant-id": "VKGASDWA", "non-specific binding call": "no binding"}
{"variant-id": "SKEAGYSV", "non-specific binding call": "binds"}
{"variant-id": "FEARDYWD", "non-specific binding call": "binds"}
{"variant-id": "YRTRDDLY", "non-specific binding call": "no binding"}
{"variant-id": "DAGTDAGD", "non-specific binding call": "no binding"}
{"variant-id": "VRARGAGF", "non-specific binding call": "binds"}
{"variant-id": "YRRRGDWY", "non-specific binding call": "binds"}
{"variant-id": "YTGRGSGV", "non-specific binding call": "binds"}
{"variant-id": "YKGRGSLY", "non-specific binding call": "binds"}
{"variant-id": "ATTGSASF", "non-specific binding call": "no binding"}
{"variant-id": "YGGRGSWV", "non-specific binding call": "no binding"}
{"variant-id": "YRGGGVVD", "non-specific binding call": "binds"}
{"variant-id": "YKRAAVWD", "non-specific binding call": "binds"}
{"variant-id": "FRARGAAV", "non-specific binding call": "binds"}
{"variant-id": "VKTGGDVF", "non-specific binding call": "no binding"}
{"variant-id": "VKGRADWV", "non-specific binding call": "no binding"}
{"variant-id": "YKGTDAWY", "non-specific binding call": "no binding"}
{"variant-id": "YAGRADVV", "non-specific binding call": "no binding"}
{"variant-id": "YRRGSSAV", "non-specific binding call": "binds"}
{"variant-id": "AKTGDSSD", "non-specific binding call": "no binding"}
{"variant-id": "DEAGTAVA", "non-specific binding call": "no binding"}
{"variant-id": "FKRKAAAA", "non-specific binding call": "binds"}
{"variant-id": "YRRGSSSV", "non-specific binding call": "binds"}
{"variant-id": "FRGKGSGF", "non-specific binding call": "binds"}
{"variant-id": "VRERGSAV", "non-specific binding call": "binds"}
{"variant-id": "FRRGSALA", "non-specific binding call": "binds"}
{"variant-id": "SGGKNSVD", "non-specific binding call": "no binding"}
{"variant-id": "FKGKGAGD", "non-specific binding call": "binds"}
{"variant-id": "ARGRGAWV", "non-specific binding call": "binds"}
{"variant-id": "YRRGDSWD", "non-specific binding call": "binds"}
{"variant-id": "DGGGNDLV", "non-specific binding call": "no binding"}
{"variant-id": "VGTKGSSA", "non-specific binding call": "no binding"}
{"variant-id": "YRRRGAAF", "non-specific binding call": "binds"}
{"variant-id": "AEAGDAVV", "non-specific binding call": "no binding"}
{"variant-id": "DKEGGFGV", "non-specific binding call": "no binding"}
{"variant-id": "DAGKGSVD", "non-specific binding call": "no binding"}
{"variant-id": "YRRGGYVD", "non-specific binding call": "binds"}
{"variant-id": "VRGGGSAA", "non-specific binding call": "binds"}
{"variant-id": "VGGGNDLA chain 1 R87K", "non-specific binding call": "no binding"}
{"variant-id": "DEGKDDVA", "non-specific binding call": "no binding"}
{"variant-id": "FTRAGAAA", "non-specific binding call": "binds"}
{"variant-id": "YEGGGDVY", "non-specific binding call": "no binding"}
{"variant-id": "VTGGDDWF", "non-specific binding call": "no binding"}
{"variant-id": "YKGKGAWS", "non-specific binding call": "binds"}
{"variant-id": "VTGTGSGF", "non-specific binding call": "no binding"}
{"variant-id": "YTRGGSGA", "non-specific binding call": "binds"}
{"variant-id": "VKGASDVV", "non-specific binding call": "no binding"}
{"variant-id": "ARRGAYGV", "non-specific binding call": "binds"}
{"variant-id": "YRGRTAGV", "non-specific binding call": "binds"}
{"variant-id": "VTGTGAVY", "non-specific binding call": "no binding"}
{"variant-id": "VEGTSASV", "non-specific binding call": "no binding"}
{"variant-id": "FAGGGAGS", "non-specific binding call": "no binding"}
{"variant-id": "VRAGGAWV", "non-specific binding call": "binds"}
{"variant-id": "SETGNVWF", "non-specific binding call": "no binding"}
{"variant-id": "YRGGDYSV", "non-specific binding call": "no binding"}
{"variant-id": "VEGKGAGD", "non-specific binding call": "no binding"}
{"variant-id": "VRRGDSSD", "non-specific binding call": "no binding"}
{"variant-id": "YKTGNDVA", "non-specific binding call": "no binding"}
{"variant-id": "DRAGDSVD", "non-specific binding call": "no binding"}
{"variant-id": "DRAGDDAV", "non-specific binding call": "no binding"}
{"variant-id": "YKTRGFGA", "non-specific binding call": "binds"}
{"variant-id": "ATAGSAAV", "non-specific binding call": "no binding"}
{"variant-id": "SKGRSDVY", "non-specific binding call": "no binding"}
{"variant-id": "VGGRGDGS", "non-specific binding call": "no binding"}
{"variant-id": "YRRRGAGD", "non-specific binding call": "binds"}
{"variant-id": "SAAGGAGA chain 1 L45S", "non-specific binding call": "no binding"}
{"variant-id": "FRGRDFVS", "non-specific binding call": "binds"}
{"variant-id": "YKERGDVV", "non-specific binding call": "no binding"}
{"variant-id": "YTARDVGV", "non-specific binding call": "binds"}
{"variant-id": "VRERGDWF", "non-specific binding call": "no binding"}
{"variant-id": "VRAGDSSV", "non-specific binding call": "no binding"}
{"variant-id": "FRGRSSAF", "non-specific binding call": "binds"}

Where do the numbers come from? From the emibetuzumab library of Makowski et al. (2022).
